# Test system: HLA-B*07:02
# Method: IEDB peptide-MHC binding, purified MHC/competitive/fluorescence; bounds were set here for any values at or beyond the usual limits of such assays
# Condition label: source organism: Zaire ebolavirus
Test readout: IC50

         seq  test_readout    result
0  EVNSFKAAL          IC50  ≥ 139 µM
1  LHPLARTAK          IC50  ≥ 158 µM
2  NTPVYKLDI          IC50  ≥ 119 µM
3  MASENSSAM          IC50   28.4 µM

* * *

# Test system: HLA-B*58:01
# Method: IEDB peptide-MHC binding, purified MHC/direct/fluorescence; filed as Kd, often an IC50 or EC50 that approximates it; bounds were set here for any values at or beyond the usual limits of such assays
# Condition label: source organism: Brucella melitensis
pKd: −log10 of the molar value.
Test readout: pKd

         seq  test_readout  result
0  RLWNGRRCR           pKd  ≤ 4.70
1  RVISDGYFK           pKd  ≤ 4.70

* * *

# Test system: HLA-A*02:03
# Method: IEDB peptide-MHC binding, purified MHC/competitive/radioactivity; filed as Kd, often an IC50 or EC50 that approximates it; bounds were set here for any values at or beyond the usual limits of such assays
# Condition label: source organism: Mammarenavirus whitewaterense
pKd: −log10 of the molar value.
Test readout: pKd

In [3]: df
Out[3]:
          seq  quantitative_result
0  YCHGILLKDV                 4.89

* * *

# Test system: HLA-A*03:01
# Method: IEDB peptide-MHC binding, purified MHC/direct/fluorescence; filed as Kd, often an IC50 or EC50 that approximates it; bounds were set here for any values at or beyond the usual limits of such assays
# Condition label: source organism: West Nile virus
pKd: −log10 of the molar value.
Test readout: pKd

>>> print(df.to_string())
         seq  test_readout  quantitative_result
0  RLCYGGPWK           pKd                 6.29

* * *

# Test system: HLA-B*07:02
# Method: IEDB peptide-MHC binding, purified MHC/direct/fluorescence; filed as Kd, often an IC50 or EC50 that approximates it; bounds were set here for any values at or beyond the usual limits of such assays
# Condition label: source organism: Pseudomonas sp. KIE171
Test readout: Kd (µM)

In [3]: df
Out[3]:
         seq  test_system  quantitative_result
0  VPWQEKTAS  HLA-B*07:02                 5.81

* * *

# Test system: HLA-A*11:01
# Method: IEDB peptide-MHC binding, purified MHC/competitive/fluorescence; bounds were set here for any values at or beyond the usual limits of such assays
# Condition label: source organism: Vaccinia virus
pIC50: −log10 of the molar value.
Test readout: pIC50

>>> df
         seq  test_readout  result
0  GKVFAPKQK         pIC50  ≤ 3.92

* * *

# Test system: HLA-B*44:03
# Method: IEDB peptide-MHC binding, purified MHC/competitive/radioactivity; filed as Kd, often an IC50 or EC50 that approximates it; bounds were set here for any values at or beyond the usual limits of such assays
# Condition label: source organism: Lassa virus Josiah
Test readout: Kd (µM)

         seq  quantitative_result
0  AEAQMSIQL                0.106

* * *

# Test system: HLA-A*29:02
# Method: IEDB peptide-MHC binding, purified MHC/competitive/fluorescence; filed as Kd, often an IC50 or EC50 that approximates it; bounds were set here for any values at or beyond the usual limits of such assays
# Condition label: source organism: Brucella abortus S19
pKd: −log10 of the molar value.
Test readout: pKd

In [3]: df
Out[3]:
         seq  test_system  result
0  KQWIVAGAI  HLA-A*29:02  ≤ 4.70

* * *

# Test system: HLA-B*15:42
# Method: IEDB peptide-MHC binding, purified MHC/competitive/fluorescence; filed as Kd, often an IC50 or EC50 that approximates it; bounds were set here for any values at or beyond the usual limits of such assays
# Condition label: source organism: Influenza A virus (A/swine/Hannover/1/1981(H1N1))
Test readout: Kd

         seq  result
0  RRRFVQNAL  ≥ 5 µM

* * *

# Test system: HLA-A*29:02
# Method: IEDB peptide-MHC binding, purified MHC/competitive/radioactivity; filed as Kd, often an IC50 or EC50 that approximates it; bounds were set here for any values at or beyond the usual limits of such assays
# Condition label: source organism: Lassa virus Josiah
pKd: −log10 of the molar value.
Test readout: pKd

>>> print(df.to_string())
          seq  test_readout  quantitative_result
0  KCWLVSNGSY           pKd                 5.82
1  YCNYSKYWYL           pKd                 4.97

* * *

# Test system: HLA-B*53:01
# Method: IEDB peptide-MHC binding, purified MHC/competitive/radioactivity; filed as Kd, often an IC50 or EC50 that approximates it; bounds were set here for any values at or beyond the usual limits of such assays
# Condition label: source organism: Lymphocytic choriomeningitis virus (strain Armstrong)
Test readout: Kd

         seq  test_system  test_readout  result
0  GPMMCPFLF  HLA-B*53:01            Kd  173 nM

* * *

# Test system: HLA-A*31:01
# Method: IEDB peptide-MHC binding, purified MHC/direct/fluorescence; filed as Kd, often an IC50 or EC50 that approximates it; bounds were set here for any values at or beyond the usual limits of such assays
# Condition label: source organism: Vibrio vulnificus
Test readout: Kd

>>> df
         seq   result
0  IQTHCEVGY  ≥ 20 µM

* * *

# Test system: HLA-A*31:01
# Method: IEDB peptide-MHC binding, purified MHC/direct/fluorescence; filed as Kd, often an IC50 or EC50 that approximates it; bounds were set here for any values at or beyond the usual limits of such assays
# Condition label: source organism: Escherichia coli O157:H7
Test readout: Kd

>>> df
         seq   result
0  EQRLIDICV  ≥ 20 µM
1  GITGGHIPK  ≥ 20 µM

* * *

# Test system: HLA-B*54:01
# Method: IEDB peptide-MHC binding, purified MHC/competitive/radioactivity; filed as Kd, often an IC50 or EC50 that approximates it; bounds were set here for any values at or beyond the usual limits of such assays
# Condition label: source organism: Vaccinia virus WR
pKd: −log10 of the molar value.
Test readout: pKd

>>> print(df.to_string())
          seq  test_readout  quantitative_result
0  VPNITISSNA           pKd                 7.78
1  RPKILSMINY           pKd                 5.53
2   LMYDIINSV           pKd                 6.59

* * *

# Test system: HLA-B*08:01
# Method: IEDB peptide-MHC binding, purified MHC/direct/fluorescence; filed as Kd, often an IC50 or EC50 that approximates it; bounds were set here for any values at or beyond the usual limits of such assays
# Condition label: source organism: Bacillus anthracis str. A0465
Test readout: Kd

In [3]: df
Out[3]:
         seq  test_readout   result
0  YFENSDLNL            Kd  ≥ 20 µM

* * *

# Test system: HLA-B*40:01
# Method: IEDB peptide-MHC binding, purified MHC/direct/fluorescence; filed as Kd, often an IC50 or EC50 that approximates it; bounds were set here for any values at or beyond the usual limits of such assays
# Condition label: source organism: Influenza A virus (A/swine/Chiai/77-10/2001(H3N1))
pKd: −log10 of the molar value.
Test readout: pKd

>>> print(df.to_string())
         seq  test_system  result
0  VSFDQNLDY  HLA-B*40:01  ≤ 4.70

* * *

# Test system: HLA-A*68:02
# Method: IEDB peptide-MHC binding, purified MHC/competitive/fluorescence; filed as Kd, often an IC50 or EC50 that approximates it; bounds were set here for any values at or beyond the usual limits of such assays
# Condition label: source organism: Mycobacterium tuberculosis C
pKd: −log10 of the molar value.
Catalogue of sequences with associated pKd
Test readout: pKd

In [3]: df
Out[3]:
         seq  result
0  LTFLDCLYY  ≤ 4.70
1  SLVAIHLAC  ≤ 4.70

* * *

# Test system: HLA-A*02:03
# Method: IEDB peptide-MHC binding, purified MHC/competitive/radioactivity; filed as Kd, often an IC50 or EC50 that approximates it; bounds were set here for any values at or beyond the usual limits of such assays
# Condition label: source organism: Vaccinia virus WR
Test readout: Kd (nM)

>>> df
           seq  test_readout  endpoint_unit  rel  quantitative_result
 0  CALVSDCAST            Kd             nM    =                  146
 1   GVPHSVFIA            Kd             nM    =                 3630
 2  ITDQTVNICI            Kd             nM    ≥                70400
 3   PLPSLEYGA            Kd             nM    =                18900
 4  YVILKDPRIA            Kd             nM    =                  355
 5   ITLILSNKL            Kd             nM    =                17100
 6  IVSHLRASTT            Kd             nM    =                  111
 7  FTEEQQQSFM            Kd             nM    =                 1750
 8   AIKSNNHLT            Kd             nM    ≥                28600
 9   IAGGVCYYL            Kd             nM    =                 1680
10   AVANCVRNL            Kd             nM    =                  114
11   NTITTFIPI            Kd             nM    =                  988
12   RLQMAGVEV            Kd             nM    =                  531
13  SIDHCSSFIV            Kd             nM    =                  772
14  YVSVMNFIPI            Kd             nM    =                  152
15   TVDVRNIVT            Kd             nM    =                13100
16  VTGSYNLVDT            Kd             nM    ≥                70400
17  LTGTFVTAFI            Kd             nM    =                  596
18  PLSPDTCLLA            Kd             nM    =                 9310
19   ELTSNCTRT            Kd             nM    ≥                78100
20  FLDWIKDIMT            Kd             nM    =                  146
21  ILISLINSLV            Kd             nM    =                 3.08
22  AAVIIMAINV            Kd             nM    =                  607
23   IAVSVYGAI            Kd             nM    =                  124
24   FTELENKKV            Kd             nM    =                 8080
25   TIESAKTKI            Kd             nM    ≥                54100
26  LIKTLSPAHL            Kd             nM    =                  356
27  DINESMSQMV            Kd             nM    =                  488
28  TQSGALEVLM            Kd             nM    =                15400
29  QIFNIISYII            Kd             nM    =                  206
30  EAFETQSGAL            Kd             nM    =                  995
31  DISDVKVLAA            Kd             nM    =                 2200
32  AAAKTPVIVV            Kd             nM    =                 1520
33  EILSNTTKTL            Kd             nM    =                  101
34  KVLSIMAFIL            Kd             nM    =                  684
